IC50 reference
Target: Recombinant human JAK2 (Homo sapiens)
Construct: catalytic domain (amino acids 808-1132; catalog number PV4210); GST
Sequence (O60674 808-1132): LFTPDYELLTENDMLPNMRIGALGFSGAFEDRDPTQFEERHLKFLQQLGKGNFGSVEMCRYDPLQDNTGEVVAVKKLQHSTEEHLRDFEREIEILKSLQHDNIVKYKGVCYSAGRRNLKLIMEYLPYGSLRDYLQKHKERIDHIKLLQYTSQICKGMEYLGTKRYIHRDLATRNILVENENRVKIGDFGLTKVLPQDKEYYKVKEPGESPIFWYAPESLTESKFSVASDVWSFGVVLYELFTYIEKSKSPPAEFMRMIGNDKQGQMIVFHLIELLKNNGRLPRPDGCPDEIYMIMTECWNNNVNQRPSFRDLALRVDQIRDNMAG
Assay: JAK2 Ulight-JAK1 peptide assay
Conditions: Ulight-JAK1(tyr1023) peptide, 7.5 μM ATP
Protocol: Recombinant human JAK2 (catalytic domain, amino acids […]; catalog number PV4210) was purchased from Invitrogen. […] Readout is performed using the Envision with excitation at 320 nm and measuring emission at 615 nm (Perkin Elmer). Kinase activity was calculated by subtracting relative fluorescence units (RFU) obtained in the presence of a positive control inhibitor (10 μM staurosporine) from RFU obtained in the presence of vehicle. […]
experimental readout: IC50

1. O=C(Nc1nn2cccc(-c3ccc(C(=O)N4CCCCC4)cc3)c2c1Cl)C1CC1 [Compound 16] | > 1000 nM
2. CC(=O)Nc1cc2c(-c3ccc(CC(=O)N4CCC4)cc3)cccn2n1 [Compound 33] | 101 to 500 nM
3. COc1ccc(-c2cccn3nc(NC(=O)C4CC4)c(-c4ccccc4)c23)cc1 [Compound 7] | > 1000 nM
4. CC(=O)Nc1cc2c(-c3ccc(C(=O)N4C[C@@H](C)O[C@@H](C)C4)cc3)cccn2n1 [Compound 39] | 101 to 500 nM

====

pIC50 reference
Target: Recombinant human JAK1 (Homo sapiens, UniProt P23458)
Construct: catalytic domain (amino acids 866-1154; catalog number PV4774)
Sequence (P23458 866-1154): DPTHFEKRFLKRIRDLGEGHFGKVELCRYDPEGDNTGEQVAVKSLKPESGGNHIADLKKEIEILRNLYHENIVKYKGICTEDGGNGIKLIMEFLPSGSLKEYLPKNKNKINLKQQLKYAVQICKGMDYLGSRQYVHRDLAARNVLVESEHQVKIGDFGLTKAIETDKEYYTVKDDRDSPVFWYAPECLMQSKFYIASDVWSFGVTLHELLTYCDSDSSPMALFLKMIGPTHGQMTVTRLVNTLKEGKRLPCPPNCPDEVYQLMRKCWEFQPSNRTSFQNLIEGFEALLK
Test: JAK1 Ulight-JAK1 peptide assay
Details: Ulight-JAK1(tyr1023) peptide, 7 μM ATP
pIC50: −log10 of the molar value.
experimental readout: pIC50

1) CC(=O)Nc1cc2c(-c3ccc(C(=O)N4CCC4)cc3)cccn2n1 [Compound 32] | 6.30 to 7.00
2) CC(=O)Nc1cc2c(-c3ccc(CN4CCN(S(C)(=O)=O)C[C@H]4C)cc3)cccn2n1 [Compound 24] | 7.00 to 11.00
3) O=C(Nc1cc2c(-c3ccc(OCc4ccccc4)cc3)cccn2n1)C1CC1 [Compound 2] | 6.30 to 7.00
4) CC(=O)Nc1cc2c(-c3ccc(CN4CCN(CC(F)(F)F)CC4)c(F)c3)cccn2n1 [Compound 28] | 7.00 to 11.00
5) CC(=O)Nc1cc2c(-c3ccc(C(=O)N4COCC4(C)C)cc3)cccn2n1 [Compound 31] | 6.30 to 7.00
6) O=C(Nc1cc2c(-c3ccc(C(=O)N4CCCCC4)cc3)cccn2n1)C1CC1 [Compound 14] | 7.00 to 11.00
7) CC(=O)Nc1cc2c(-c3cnc(OCCn4cccn4)c(F)c3)cccn2n1 [Compound 30] | 6.30 to 7.00
8) CC(=O)Nc1cc2c(-c3ccc(CC(=O)N4C[C@@H](C)O[C@@H](C)C4)cc3)cccn2n1 [Compound 37] | < 6.00
9) C[C@@H](c1ccc(-c2cccn3nc(NC(=O)C4CC4)cc23)cc1)N1CCN(S(C)(=O)=O)CC1 [Compound 47] | 7.00 to 11.00
10) CS(=O)(=O)C1CCN(Cc2ccc(-c3cccn4nc(NC(=O)C5CC5)cc34)cc2)CC1 [Compound 17] | 7.00 to 11.00
11) CC(=O)Nc1cc2c(-c3ccc(CC(=O)N4CCCCC4)cc3)cccn2n1 [Compound 35] | 6.30 to 7.00
12) CS(=O)(=O)C1CCN(Cc2ccc(-c3cccn4nc(NC(=O)C5CC5)c(Cl)c34)cc2F)CC1 [Compound 20] | 7.00 to 11.00
13) CC(=O)Nc1cc2c(-c3ccc(C(C)N4CCN(S(C)(=O)=O)CC4)cc3)cccn2n1 (centres unmarked) [Compound 45] | 7.00 to 11.00
14) CC(=O)Nc1cc2c(-c3ccc(C(=O)N4C[C@@H](C)O[C@@H](C)C4)cc3)cccn2n1 [Compound 39] | 6.30 to 7.00
15) CC(=O)Nc1cc2c(-c3ccc(CC(=O)N4CC(F)(F)C4)cc3)cccn2n1 [Compound 34] | 7.00 to 11.00
16) CC(=O)Nc1cc2c(-c3ccc(CC(=O)N4CCOCC4)cc3)cccn2n1 [Compound 36] | 6.30 to 7.00
17) CS(=O)(=O)N1CC[C@@H](Oc2ccc(-c3cccn4nc(NC(=O)C5CC5)cc34)cc2)C1 [Compound 49] | 7.00 to 11.00

====

pIC50 reference
Target: Recombinant human JAK3 catalytic domain (Homo sapiens, UniProt P52333)
Construct: catalytic domain (amino acids 795-1124; catalog number 08-046)
Sequence (P52333 795-1124): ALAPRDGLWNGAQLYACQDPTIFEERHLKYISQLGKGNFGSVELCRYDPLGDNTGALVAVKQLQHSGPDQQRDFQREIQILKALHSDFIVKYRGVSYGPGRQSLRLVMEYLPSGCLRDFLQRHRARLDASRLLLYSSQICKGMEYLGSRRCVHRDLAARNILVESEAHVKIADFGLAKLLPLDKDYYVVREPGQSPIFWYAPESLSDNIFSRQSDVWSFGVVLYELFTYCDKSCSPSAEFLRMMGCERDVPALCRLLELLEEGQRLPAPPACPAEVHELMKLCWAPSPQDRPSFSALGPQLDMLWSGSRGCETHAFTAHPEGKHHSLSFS
Assay: JAK3 inhibition assay
Settings: polyGT substrate, 33P-gamma-ATP filter assay, 1 μM ATP
pIC50: −log10 of the molar value.
experimental readout: pIC50

1) CC(=O)Nc1cc2c(-c3ccc(CC(=O)N4CCC4)cc3)cccn2n1 | < 6.00
2) CS(=O)(=O)C1CCN(Cc2ccc(-c3cccn4nc(NC(=O)C5CC5)cc34)cc2)CC1 | 6.30 to 7.00
3) O=C(Nc1cc2c(-c3ccc(OCc4ccccc4)cc3)cccn2n1)C1CC1 | 7.00 to 11.00
4) C[C@@H]1CN(S(C)(=O)=O)CCN1Cc1ccc(-c2cccn3nc(NC(=O)C4CC4)cc23)cc1 | 7.00 to 11.00
5) O=C(Nc1nn2cccc(-c3ccc(CN4CCS(=O)(=O)CC4)cc3)c2c1Br)C1CC1 | 6.30 to 7.00
6) CC(=O)Nc1cc2c(-c3cnc(CN4CCN(S(C)(=O)=O)CC4)c(F)c3)cccn2n1 | < 6.00
7) N#Cc1ccc(COc2ccc(-c3cccn4nc(NC(=O)C5CC5)cc34)cc2)cn1 | 7.00 to 11.00
8) COc1ccc(-c2cccn3nc(NC(=O)C4CC4)c(-c4ccccc4)c23)cc1 | < 6.00

====

Target: Recombinant human TYK2 catalytic domain (Homo sapiens)
Construct: catalytic domain (amino acids 871-1187; catalog number 08-147); GST
Sequence (P29597 871-1187): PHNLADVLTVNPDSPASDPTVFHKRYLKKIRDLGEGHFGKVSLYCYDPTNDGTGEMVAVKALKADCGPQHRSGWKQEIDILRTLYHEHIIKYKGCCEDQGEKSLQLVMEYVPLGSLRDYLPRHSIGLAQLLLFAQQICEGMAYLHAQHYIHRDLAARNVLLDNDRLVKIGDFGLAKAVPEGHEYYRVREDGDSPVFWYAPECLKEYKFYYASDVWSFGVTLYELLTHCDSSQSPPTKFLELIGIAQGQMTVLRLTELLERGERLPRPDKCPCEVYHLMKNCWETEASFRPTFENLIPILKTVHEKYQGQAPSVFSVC
Assay: TYK2 inhibition assay
Conditions: polyGT substrate, 33P-gamma-ATP filter assay, 0.1 μM ATP
pIC50: −log10 of the molar value.
experimental readout: pIC50

1) CS(=O)(=O)N1CC[C@@H](Oc2ccc(-c3cccn4nc(NC(=O)C5CC5)cc34)cc2)C1 | 7.00 to 11.00
2) CS(=O)(=O)C1CCN(Cc2ccc(-c3cccn4nc(NC(=O)C5CC5)cc34)cc2F)CC1 | 7.00 to 11.00
3) CS(=O)(=O)C1CCN(Cc2ccc(-c3cccn4nc(NC(=O)C5CC5)cc34)cc2)CC1 | 7.00 to 11.00
4) O=C(NCCOc1ccccc1)c1ccc(-c2cccn3nc(NC(=O)C4CC4)cc23)cc1 | 6.30 to 7.00
5) CC(=O)Nc1cc2c(-c3cnc(CN4CCN(S(C)(=O)=O)CC4)c(F)c3)cccn2n1 | < 6.00
6) O=C(Nc1cc2c(-c3ccc4c(ccn4Cc4ccccc4)c3)cccn2n1)C1CC1 | 6.30 to 7.00
7) CS(=O)(=O)N1CCN(Cc2ccc(-c3cccn4nc(NC(=O)C5CC5)cc34)cn2)CC1 | 6.30 to 7.00
8) C[C@@H](c1ccc(-c2cccn3nc(NC(=O)C4CC4)cc23)cc1)N1CCN(S(C)(=O)=O)CC1 | 7.00 to 11.00
9) CC(=O)Nc1cc2c(-c3ccc(CN4CCN(S(C)(=O)=O)C[C@H]4C)cc3)cccn2n1 | 6.00 to 6.30
10) CC(=O)Nc1cc2c(-c3ccc(C(C)N4CCN(S(C)(=O)=O)CC4)cc3)cccn2n1 (stereo not shown) | 7.00 to 11.00
11) CC(=O)Nc1cc2c(-c3ccc(CN4CCN(CC(F)(F)F)CC4)c(F)c3)cccn2n1 | 6.30 to 7.00
12) O=C(Nc1cc2c(-c3ccc(C(=O)N4CCCCC4)cc3)cccn2n1)C1CC1 | 7.00 to 11.00
13) O=C(Nc1nn2cccc(-c3ccc(CN4CCS(=O)(=O)CC4)cc3)c2c1Br)C1CC1 | 7.00 to 11.00
14) CC(=O)Nc1cc2c(-c3ccc(CN4CCN(S(C)(=O)=O)CC4)c(F)c3)cccn2n1 | 6.30 to 7.00
15) CC(=O)Nc1cc2c(-c3ccc(CC(=O)N4CCOCC4)cc3)cccn2n1 | 7.00 to 11.00
16) O=C(NCCc1ccccc1)c1ccc(-c2cccn3nc(NC(=O)C4CC4)cc23)cc1 | 7.00 to 11.00
